Value source: PubChem BioAssay AID2060350

- Tested on: PDC 521955-158-R6-J3 spheroids, viability;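 further: spheroids exposed to drugs for 7 days before readout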
- assay_protocol: Anticancer human tumor 521955-158-R6-J3-PDC patient-derived pancreatic carcinoma cell line growth inhibition [TAK]
- test_conditions: curve of first compound; second compound 3 µM; spheroids with HUVEC and MSC
pIC50: −log10 of the molar value.
observable: pIC50

[
  {
    "compound": "COC1CC2CCC(C)C(O)(O2)C(=O)C(=O)N2CCCCC2C(=O)OC(C(C)CC2CCC(OCCO)C(OC)C2)CC(=O)C(C)C=C(C)C(O)C(OC)C(=O)C(C)CC(C)C=CC=CC=C1C (centres undefined) + CC(C)NCC(C(=O)N1CCN(c2ncnc3c2C(C)CC3O)CC1)c1ccc(Cl)cc1",
    "observable": "pIC50",
    "result_comparator": "<",
    "obs_value": 7.00
  },
  {
    "compound": "CC(C)n1nc(-c2ccc3oc(N)nc3c2)c2c(N)ncnc21 + CC(C)NCC(C(=O)N1CCN(c2ncnc3c2C(C)CC3O)CC1)c1ccc(Cl)cc1",
    "observable": "pIC50",
    "result_comparator": "=",
    "obs_value": 7.62
  },
  {
    "compound": "CC(C)CC(NC(=O)C(Cc1ccccc1)NC(=O)c1cnccn1)B(O)O (centres undefined) + CC(C)NCC(C(=O)N1CCN(c2ncnc3c2C(C)CC3O)CC1)c1ccc(Cl)cc1",
    "observable": "pIC50",
    "result_comparator": "=",
    "obs_value": 8.24
  },
  {
    "compound": "CCCS(=O)(=O)Nc1ccc(F)c(C(=O)c2c[nH]c3ncc(-c4ccc(Cl)cc4)cc23)c1F + CC(C)NCC(C(=O)N1CCN(c2ncnc3c2C(C)CC3O)CC1)c1ccc(Cl)cc1",
    "observable": "pIC50",
    "result_comparator": "=",
    "obs_value": 4.19
  }
]
